# Read-out: Matrix Metallopeptidase 1 (MMP1), MMP1 (gene 4312)
# protocolText: BSK_hDFCGF_MMP1: BioMAP Diversity Plus: hDFCGF Assay for Matrix Metallopeptidase 1 (MMP1) Biomarker Activity (AID 2283064)
# studyConditions: primary human foreskin fibroblasts; actives raise or lower the signal
The source made the active and inactive calls. The calls were made as follows: active = hit-call score of the fitted dose curve at least 0.9, where 1 is the maximum; inactive = score below 0.9.
measuredAttribute: AC50

> print(dat)
                                  chemsmiles              value
 1                            O=C(O)c1ccccc1           inactive
 2                                    OB(O)O           inactive
 3  CCCN(CCC)c1c([N+](=O)[O-])cc(C(F)(F)F)c(N)c1[N+](=O)[O-]   35.5 µM (active)
 4  S=C(S)NCCNC(=S)S.[Mn+2].[S-]C([S-])=NCCN=C([S-])[S-].[Zn+2]           inactive
 5              CCCOC(=O)c1ccc(C(=O)OCCC)nc1           inactive
 6                                     COCCO           inactive
 7             O=C(c1ccc(O)cc1O)c1ccc(O)cc1O           inactive
 8  COC(=O)c1ccccc1S(=O)(=O)NC(=O)Nc1nc(OC(F)F)cc(OC(F)F)n1           inactive
 9  COC(=O)c1ccc(I)cc1S(=O)(=O)NC(=O)Nc1nc(C)nc(OC)n1           inactive
10                       c1ccc(Nc2ccccc2)cc1           inactive
11  O=C(Nc1ccc([N+](=O)[O-])cc1Cl)c1cc(Cl)ccc1O  0.227 µM (active)
12  COC(=O)c1c(Cl)nn(C)c1S(=O)(=O)NC(=O)Nc1nc(OC)cc(OC)n1           inactive
13             S=C([S-])NCCNC(=S)[S-].[Mn+2]   4.73 µM (active)

---

# targetUnderTest: human Janus Kinase 2 (Jak2), JAK2 (gene 3717) (UniProt O60674)
# Sequence (O60674 whole entry, looked up): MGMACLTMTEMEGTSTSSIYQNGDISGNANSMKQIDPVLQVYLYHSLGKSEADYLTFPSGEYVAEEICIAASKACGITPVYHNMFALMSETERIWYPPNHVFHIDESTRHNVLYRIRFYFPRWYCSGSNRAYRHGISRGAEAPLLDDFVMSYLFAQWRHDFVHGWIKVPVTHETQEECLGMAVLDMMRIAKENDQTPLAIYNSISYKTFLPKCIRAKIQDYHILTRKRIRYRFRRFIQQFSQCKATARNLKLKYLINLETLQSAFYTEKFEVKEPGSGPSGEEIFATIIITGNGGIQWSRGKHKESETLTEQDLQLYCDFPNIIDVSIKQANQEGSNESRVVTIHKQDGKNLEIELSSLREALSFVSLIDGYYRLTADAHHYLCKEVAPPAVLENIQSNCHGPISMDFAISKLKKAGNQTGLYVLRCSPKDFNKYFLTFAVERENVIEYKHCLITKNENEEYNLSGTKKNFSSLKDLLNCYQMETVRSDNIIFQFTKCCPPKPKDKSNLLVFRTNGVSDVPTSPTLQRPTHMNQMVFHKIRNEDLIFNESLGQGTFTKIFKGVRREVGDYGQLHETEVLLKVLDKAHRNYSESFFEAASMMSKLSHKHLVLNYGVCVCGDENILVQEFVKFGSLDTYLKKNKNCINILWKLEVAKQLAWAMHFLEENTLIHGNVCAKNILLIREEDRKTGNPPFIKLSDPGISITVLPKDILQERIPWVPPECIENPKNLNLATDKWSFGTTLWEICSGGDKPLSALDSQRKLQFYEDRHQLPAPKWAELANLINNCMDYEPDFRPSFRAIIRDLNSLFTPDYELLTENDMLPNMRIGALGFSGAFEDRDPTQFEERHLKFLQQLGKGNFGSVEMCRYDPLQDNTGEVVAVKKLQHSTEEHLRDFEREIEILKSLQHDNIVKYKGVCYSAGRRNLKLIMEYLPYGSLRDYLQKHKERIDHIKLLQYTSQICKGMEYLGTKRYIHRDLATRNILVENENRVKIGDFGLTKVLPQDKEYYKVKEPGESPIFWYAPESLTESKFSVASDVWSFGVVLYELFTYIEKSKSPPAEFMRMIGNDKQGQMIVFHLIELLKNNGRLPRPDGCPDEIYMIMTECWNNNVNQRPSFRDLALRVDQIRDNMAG
# protocolText: NVS_ENZ_hJak2: NovaScreen (NVS) Enzymatic Assay for human Janus Kinase 2 (Jak2) (AID 2283169)
Records with an inconclusive call do not appear. Active and inactive are the calls of the source. Rule for the calls: active = hit-call score of the fitted dose curve at least 0.9, where 1 is the maximum; inconclusive = response in the unintended direction; inactive = score below 0.9.
Labels: active, inactive

> print(dat)
                                 chemsmiles  labelvalue
1                c1ccc2[nH]c(-c3cscn3)nc2c1      active
2             CC(C)(c1ccc(O)cc1)c1ccc(O)cc1    inactive
3  N[C@@H](Cc1cc(I)c(Oc2ccc(O)c(I)c2)c(I)c1)C(=O)O      active
4             O=C(c1ccc(O)cc1O)c1ccc(O)cc1O      active
5                       c1ccc(Nc2ccccc2)cc1    inactive

---

# protocolText: CCTE_Mundy_HCI_Cortical_Synap_Neur_Matur_SynapseCount: CCTE's Synaptogenesis and Neurite Maturation Assay in rat cortical cells for Synapse Count, Mundy Lab (AID 2284218)
# Procedure: CCTE_Mundy_HCI_Cortical_Synap&Neurite_Matur is a multiplexed, cell-based-readout assay that uses rat primary cortical cells with measurements taken at 288.33 hours after chemical dosing in a microplate: 96-well plate.CCTE_Mundy_HCI_Cortical_Synap_Neur_Matur_SynapseCount is one of eight components of the CCTE_Mundy_HCI_Cortical_Synap&Neurite_Matur assay. […]
The source made the active and inactive calls. The calls were made as follows: active = hit-call score of the fitted dose curve at least 0.9, where 1 is the maximum; inactive = score below 0.9.
Labels: active, inactive

> print(dat)
                                   molecule  labelvalue
1  Cc1nn(C)c(Oc2ccccc2)c1C=NOCc1ccc(C(=O)OC(C)(C)C)cc1      active
2  CC1(C)C(C=C(Cl)Cl)C1C(=O)OCc1cccc(Oc2ccccc2)c1 (stereo not drawn)      active
3             S=C([S-])NCCNC(=S)[S-].[Mn+2]    inactive
4                         CCCN(CCC)C(=O)SCC    inactive
5  C#CCOC(=O)[C@@H](C)Oc1ccc(Oc2ncc(Cl)cc2F)cc1    inactive
6                      CSC(=O)c1cccc2nnsc12    inactive
7             CC(C)(c1ccc(O)cc1)c1ccc(O)cc1      active
8                            O=C(O)c1ccccc1    inactive

---

# protocolText: CCTE_Shafer_MEA_acute_burst_duration_mean: CCTE's Neural Acute Assay for Mean Burst Duration, Shafer Lab (AID 2284014);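 also: hits are decreases in mean burst duration relative to DMSO controls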
Calls of active or inactive are those of the source. How the source made its calls: active means hit-call score of the fitted dose curve at least 0.9, where 1 is the maximum; inactive means score below 0.9.
Classes used: 1 for active, -1 for inactive

> print(dat)
                                 chemsmiles  labelvalue
1      Oc1ccc(C(c2ccc(O)cc2)C(Cl)(Cl)Cl)cc1          -1
2  O=C(Nc1ccc([N+](=O)[O-])cc1Cl)c1cc(Cl)ccc1O           1
3                                    OB(O)O          -1
4                       N#CSCSc1nc2ccccc2s1          -1
5  C#CCOC(=O)[C@@H](C)Oc1ccc(Oc2ncc(Cl)cc2F)cc1          -1
6                     COC(=O)c1ccccc1C(=O)O          -1
7  Cc1nn(C)c(Oc2ccccc2)c1C=NOCc1ccc(C(=O)OC(C)(C)C)cc1          -1
8             O=C(c1ccc(O)cc1O)c1ccc(O)cc1O          -1
9                      CSC(=O)c1cccc2nnsc12          -1

---

# Read-out: Human Leukocyte Antigen - DR isotype (HLADR), HLA-DRA (gene 3122)
# protocolText: BSK_BE3C_HLADR: BioMAP Diversity Plus: BE3C Assay for Human Leukocyte Antigen - DR isotype (HLADR) Biomarker Activity (AID 2283032)
# studyConditions: primary human bronchial epithelial cells; actives raise or lower the signal
Active and inactive are the calls of the source. How the source made its calls: active means hit-call score of the fitted dose curve at least 0.9, where 1 is the maximum; inactive means score below 0.9.
measuredAttribute: AC50

> print(dat)
                                   compound              value
1  Cc1nn(C)c(Oc2ccccc2)c1C=NOCc1ccc(C(=O)OC(C)(C)C)cc1  0.814 µM (active)
2  CCCCC(CC)CN1C(=O)C2C3C=CC(C3)C2C1=O (configuration not stated)   15.7 µM (active)
3                         CCCN(CCC)C(=O)SCC           inactive
4                  COc1c(Cl)ccc(Cl)c1C(=O)O           inactive
5                            O=C(O)c1ccccc1           inactive
6  COC(=O)c1c(Cl)nn(C)c1S(=O)(=O)NC(=O)Nc1nc(OC)cc(OC)n1           inactive
7      Oc1ccc(C(c2ccc(O)cc2)C(Cl)(Cl)Cl)cc1   26.5 µM (active)

---

# protocolText: CCTE_Shafer_MEA_dev_bursting_electrodes_number: CCTE's Neural Network Formation Assay for Number of Bursting Electrodes, Shafer Lab (AID 2284043)
# Method: CCTE_Shafer_MEA_dev assay is conducted using Axion Biosystems 48 well microelectrode array (MEA) plates and Maestro recording system. Each well of the MEA plate contains a grid of 16 microelectrodes embedded in the culture surface. Electrically active cells, such as neurons, can be cultured over the electrodes, and electrical activity in these cells can be recorded extracellularly. […]
Results filed as inconclusive are left out. Calls of active or inactive are those of the source. The calls were made as follows: active = hit-call score of the fitted dose curve at least 0.9, where 1 is the maximum; inconclusive = response in the unintended direction; inactive = score below 0.9.
Labels: active, inactive

> print(dat)
                                   compound  labelvalue
1                                     COCCO    inactive
2                   CCN(CC)C(=O)c1cccc(C)c1    inactive
3                                    OB(O)O    inactive
4                         CCCN(CCC)C(=O)SCC    inactive
5  CCCCC(CC)CN1C(=O)C2C3C=CC(C3)C2C1=O (stereo unspecified)      active
6            CCCCOCCOCCOCc1cc2c(cc1CCC)OCO2      active

---

# Read-out: CD69, CD69 (gene 969)
# protocolText: BSK_SAg_CD69: BioMAP Diversity Plus: SAg Assay for CD69 Biomarker Activity (AID 2283089)
# studyConditions: primary human HUVEC with PBMC; actives raise or lower the signal
Active and inactive are the calls of the source. The calls were made as follows: active = hit-call score of the fitted dose curve at least 0.9, where 1 is the maximum; inactive = score below 0.9.
Classes used: y (active), n (inactive)

> print(dat)
                                    molecule  labelvalue
 1               CN(C)C(=O)Nc1ccc(Cl)c(Cl)c1           n
 2  CCCCC(CC)COC(=O)c1ccccc1C(=O)O (stereo unspecified)           n
 3                      CSC(=O)c1cccc2nnsc12           n
 4           CCOC(=O)NCCOc1ccc(Oc2ccccc2)cc1           y
 5  C[C@]12C[C@H](O)[C@H]3[C@@H](CCC4=CC(=O)CC[C@@]43C)[C@@H]1CC[C@@H]2C(=O)CO           n
 6  CCC(C)OC(=O)N1CCCCC1CCO (stereo unspecified)           n
 7                                     COCCO           n
 8              CCCOC(=O)c1ccc(C(=O)OCCC)nc1           n
 9                   CCN(CC)C(=O)c1cccc(C)c1           n
10  CCCN(CCC)c1c([N+](=O)[O-])cc(C(F)(F)F)c(N)c1[N+](=O)[O-]           n
11                        CCNc1nc(N)nc(Cl)n1           n
12         O=C(O)C1(C(=O)Nc2ccc(Cl)cc2Cl)CC1           y
13                     O=C(c1ccccc1)C1CCCCC1           n
14  C#CCOC(=O)[C@@H](C)Oc1ccc(Oc2ncc(Cl)cc2F)cc1           n
15  CCCCOC(=O)[C@@H](C)Oc1ccc(Oc2ccc(C(F)(F)F)cn2)cc1           n
16  CCCCCCC(C)OC(=O)COc1nc(F)c(Cl)c(N)c1Cl (stereo unspecified)           y
17  CCOC(=O)COc1cc(-n2ncc(C(F)(F)F)c(C)c2=O)c(F)cc1Cl           n
18                         CCCN(CCC)C(=O)SCC           n
19  S=C(S)NCCNC(=S)S.[Mn+2].[S-]C([S-])=NCCN=C([S-])[S-].[Zn+2]           n
20  CCC(O)=C1C(=O)CC(C(=O)O)CC1=O (stereo unspecified)           n
21                   CCSC(=O)N(CC(C)C)CC(C)C           n
22  CCOC(=O)[C@H](C)Oc1ccc(Oc2nc3ccc(Cl)cc3o2)cc1           n
23                    CC(C)CCCCCCc1ccc(O)cc1           y
24                                    OB(O)O           n
25  Cc1nn(C)c(Oc2ccccc2)c1C=NOCc1ccc(C(=O)OC(C)(C)C)cc1           y
26  CC(=O)S[C@@H]1CC2=CC(=O)CC[C@]2(C)[C@H]2CC[C@@]3(C)[C@@H](CC[C@@]34CCC(=O)O4)[C@H]12           y

Where do these numbers come from? They come from PubChem BioAssay (EPA / NIEHS).
